// provenance: paper PMC7645381

# Tested on: P. falciparum 3D7 parasites
# Assay name: P. falciparum parasite viability assay (LDH)
# Type: cell-based
# Run parameters: Plasmodium falciparum, 3D7, 72 h, read-out: P. falciparum 3D7 EC50, control, LDH activity, 72 h
Measure name: EC50

Name the reported EC50 value associated with the molecule CCN(CC)CCCC(C)Nc1ccnc2cc(Cl)ccc12 (stereo not shown) [Chloroquine, reference compound]
18 nM

* * *

# System under test: P. falciparum Rh5 (Rh5 – basigin interaction) (Plasmodium falciparum, UniProt Q8IFM5)
# Sequence (Q8IFM5 24-526): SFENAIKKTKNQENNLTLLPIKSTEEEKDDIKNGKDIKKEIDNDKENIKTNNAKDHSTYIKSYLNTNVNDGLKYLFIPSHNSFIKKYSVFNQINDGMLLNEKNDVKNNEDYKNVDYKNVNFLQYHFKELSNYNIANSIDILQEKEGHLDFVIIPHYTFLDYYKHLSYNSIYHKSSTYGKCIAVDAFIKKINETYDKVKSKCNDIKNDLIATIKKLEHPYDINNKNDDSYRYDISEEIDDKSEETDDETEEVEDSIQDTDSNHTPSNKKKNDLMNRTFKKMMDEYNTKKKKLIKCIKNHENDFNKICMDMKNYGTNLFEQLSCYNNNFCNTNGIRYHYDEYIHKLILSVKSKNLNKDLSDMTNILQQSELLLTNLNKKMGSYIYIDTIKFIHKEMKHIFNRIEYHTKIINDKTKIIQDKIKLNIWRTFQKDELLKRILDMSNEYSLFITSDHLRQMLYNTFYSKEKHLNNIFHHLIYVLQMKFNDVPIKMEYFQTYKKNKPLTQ
# Assay name: biochemical
# Set-up: AlphaScreen of Rh5 - His-tagged basigin interaction with anti-Rh5 mAb beads; inhibition of luminescence signal
# Run parameters: Batch Reference=01; primary pilot screen, single point
Counter-ions that a name gives are not always drawn.
Measure name: inhibition at 20 µM (%)
Express it in %; write the number only.

What measured inhibition at 20 µM is associated with NCCNCCNCCNCCN [WEHI-1217021] on P. falciparum Rh5 (Rh5 – basigin interaction) (Plasmodium falciparum, UniProt Q8IFM5)?
96.2

Under P. falciparum Rh5 (Rh5 – basigin interaction) (Plasmodium falciparum, UniProt Q8IFM5): inhibition at 20 µM value of CN1CCc2cccc3c2[C@H]1Cc1ccc(O)c(O)c1-3 [WEHI-1216442, (R)-(-)-Apomorphine hydrochloride] ?
70.8

Lab note: need inhibition at 20 µM with P. falciparum Rh5 (Rh5 – basigin interaction) (Plasmodium falciparum, UniProt Q8IFM5) for entry NC(Cc1cc(O)c(O)cc1O)C(=O)O (racemic) [WEHI-1215200, 6-Hydroxy-DL-DOPA] , please look it up.
69.7

Write down the reported inhibition at 20 µM of C[n+]1cc2c3c(ccc2c2ccc4cc5c(cc4c21)OCO5)OCO3 [WEHI-1215580, Sanguinarine chloride] , test system: P. falciparum Rh5 (Rh5 – basigin interaction) (Plasmodium falciparum, UniProt Q8IFM5).
70.3

Under P. falciparum Rh5 (Rh5 – basigin interaction) (Plasmodium falciparum, UniProt Q8IFM5): inhibition at 20 µM value of CC[N+](C)(CC)CCC[n+]1c(-c2ccccc2)c2cc(N)ccc2c2ccc(N)cc21 [WEHI-1216760, Propidium iodide] ?
55.7

Request - read-out inhibition at 20 µM | tested on P. falciparum Rh5 (Rh5 – basigin interaction) (Plasmodium falciparum, UniProt Q8IFM5) | compound O=C(O)Cc1cccc(OCCCN(Cc2cccc(C(F)(F)F)c2Cl)CC(c2ccccc2)c2ccccc2)c1 [WEHI-1216231, GW 3965 hydrochloride]
57.8

Provide the documented inhibition at 20 µM with P. falciparum Rh5 (Rh5 – basigin interaction) (Plasmodium falciparum, UniProt Q8IFM5) as the system for CCCN1CCc2cc(O)cc3c2[C@H]1Cc1ccc(O)c(O)c1-3 [WEHI-1215052]
69.8

Return inhibition at 20 µM measured with P. falciparum Rh5 (Rh5 – basigin interaction) (Plasmodium falciparum, UniProt Q8IFM5) given this compound: O=C1C=CC(=O)c2c1ccc1c2ccc2ccccc21 [WEHI-1216729, Chrysene-1,4-quinone]
56.6

P. falciparum Rh5 (Rh5 – basigin interaction) (Plasmodium falciparum, UniProt Q8IFM5) / inhibition at 20 µM / O=C(Nc1cccc2c(=O)cc(-c3nnn[nH]3)oc12)c1ccc(OCCCCc2ccccc2)cc1 [pranlukast] : value?
75.4

Value wanted: inhibition at 20 µM (P. falciparum Rh5 (Rh5 – basigin interaction) (Plasmodium falciparum, UniProt Q8IFM5)) of entry CCCN1CCc2cccc3c2[C@H]1Cc1ccc(O)c(O)c1-3 [WEHI-1215034, R(-)-Propylnorapomorphine hydrochloride]
83

# value lookup — system P. falciparum Rh5 (Rh5 – basigin interaction) (Plasmodium falciparum, UniProt Q8IFM5), readout inhibition at 20 µM, item CN1CCc2cc(O)cc3c2[C@H]1Cc1ccc(O)c(O)c1-3 [WEHI-1215043]
62.6

Quick check: inhibition at 20 µM on P. falciparum Rh5 (Rh5 – basigin interaction) (Plasmodium falciparum, UniProt Q8IFM5), item COCCCOc1ccnc(C[S+]([O-])c2nc3ccccc3[nH]2)c1C (stereo not shown) [rabeprazole] ?
59.6

State its inhibition at 20 µM on P. falciparum Rh5 (Rh5 – basigin interaction) (Plasmodium falciparum, UniProt Q8IFM5): CC#C[C@]1(O)CC[C@H]2[C@@H]3CCC4=CC(=O)CCC4=C3[C@@H](c3ccc(N(C)C)cc3)C[C@@]21C [WEHI-1215337, Mifepristone]
75.3
